Each recorded value in this set is attributed to PubChem BioAssay.

- procedure-summary: probe aLefty2 binding to arrayed compounds – biochemical, biotinylated probe, 635/667 nm fluorescence, primary screen (AID 1094);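 further: score merges spot fluorescence near 667 nm with spot signal-to-noise ratio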
- setup-conditions: small-molecule microarray, higher = more signal
metric: composite z-score

compound="CC(=O)c1ccc(C(O)C2C=CC3C(=O)N(c4ccccc4)C(=O)C3N2Nc2ccc(C(C)C)cc2)cc1 (centres undefined)" numeric_result=0.136
compound="NC(=O)N1C(=O)C2C(C1=O)C1C=C(CCCO)C2C(c2ccc(CN3CCCC3)cc2)N1Cc1cc2c(cc1Br)OCO2 (centres undefined)" numeric_result=-0.128
compound=CCCN1C(=O)[C@]2(CCC(=O)OC(C)(C)C)N=C(c3ccc(OCCCO)cc3)O[C@@H]2c2ccccc21 numeric_result=0.151
compound="CC1CC/C=C\\[C@H]2OC34C=CCN(CCN5CCOCC5)C(=O)[C@H]3N(CCCO)C(=O)[C@@H]4C2C(=O)O1 (some centres undefined)" numeric_result=-0.21

----------
- assay-system: Epidermal growth factor receptor (Homo sapiens) (UniProt P00533)
- Sequence (P00533 whole entry, looked up): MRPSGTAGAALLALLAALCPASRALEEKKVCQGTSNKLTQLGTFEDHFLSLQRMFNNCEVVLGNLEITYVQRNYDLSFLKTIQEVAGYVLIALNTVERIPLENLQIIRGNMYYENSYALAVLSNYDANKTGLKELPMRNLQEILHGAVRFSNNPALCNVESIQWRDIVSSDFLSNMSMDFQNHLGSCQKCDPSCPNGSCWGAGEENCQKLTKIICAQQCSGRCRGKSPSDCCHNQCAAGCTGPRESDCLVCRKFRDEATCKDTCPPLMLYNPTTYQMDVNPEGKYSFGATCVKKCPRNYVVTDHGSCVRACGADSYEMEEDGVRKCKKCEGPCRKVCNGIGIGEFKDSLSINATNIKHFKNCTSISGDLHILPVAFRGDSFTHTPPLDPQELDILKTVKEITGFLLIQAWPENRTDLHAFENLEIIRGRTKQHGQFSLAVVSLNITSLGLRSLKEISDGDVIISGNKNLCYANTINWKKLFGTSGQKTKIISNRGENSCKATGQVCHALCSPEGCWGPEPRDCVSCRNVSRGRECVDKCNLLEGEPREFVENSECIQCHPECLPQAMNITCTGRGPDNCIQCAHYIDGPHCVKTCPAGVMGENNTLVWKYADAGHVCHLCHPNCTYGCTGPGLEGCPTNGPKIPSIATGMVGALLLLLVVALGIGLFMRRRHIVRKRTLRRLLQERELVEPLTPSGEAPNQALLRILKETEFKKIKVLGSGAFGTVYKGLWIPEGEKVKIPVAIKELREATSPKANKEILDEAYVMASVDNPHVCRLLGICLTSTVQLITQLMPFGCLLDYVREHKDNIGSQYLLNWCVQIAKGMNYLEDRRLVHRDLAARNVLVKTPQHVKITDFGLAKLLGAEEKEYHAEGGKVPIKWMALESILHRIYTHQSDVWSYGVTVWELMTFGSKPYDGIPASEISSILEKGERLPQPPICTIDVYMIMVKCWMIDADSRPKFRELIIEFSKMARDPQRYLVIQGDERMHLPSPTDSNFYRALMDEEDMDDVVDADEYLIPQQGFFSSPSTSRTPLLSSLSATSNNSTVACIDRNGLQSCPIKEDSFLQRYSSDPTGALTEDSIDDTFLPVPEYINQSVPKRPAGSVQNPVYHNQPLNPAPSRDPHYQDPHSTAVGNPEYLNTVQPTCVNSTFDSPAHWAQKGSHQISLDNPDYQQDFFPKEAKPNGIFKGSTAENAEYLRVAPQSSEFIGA
- procedure-summary: compounds binding epidermal growth factor receptor – biochemical, small-molecule microarray, 635 nm fluorescence, primary screen (AID 1104);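 further: score merges 667 nm emission intensity with spot signal to noise over triplicate slides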
- setup-conditions: EGFR binding, higher = more signal
Record Criterion met whenever composite z-score is at 0.4 or higher; record Criterion not met when lower.

molecule="N#Cc1ccc(NN2C(C(O)C3CC=CCC3)C=CC3C(=O)N(c4ccccc4)C(=O)C32)cc1 (centres undefined)" assigned_class="Criterion met"
molecule=C=CCNC(=O)[C@H]1[C@@H]2C(=O)O[C@@H](c3ccccc3)[C@@H](c3ccccc3)N2[C@@H](c2ccc(OCCO)cc2)[C@]12C(=O)Nc1ccccc12 assigned_class="Criterion not met"
molecule=CCOC(=O)C1=CC[C@@H](c2ccccc2)N(S(=O)(=O)c2ccc(C)cc2)[C@H]1c1ccccc1I assigned_class="Criterion met"
molecule=C[N+](C)(C)CCCC[C@@H]1NC(=O)[C@@H]2C[C@H](C(=O)NCc3ccc(F)cc3)[C@H](c3ccc(O)cc3)N2C1=O assigned_class="Criterion not met"
molecule="CC1CC/C=C\\[C@H]2OC34C=CCN(Cc5ccccc5)C(=O)[C@H]3N(CCCCCCO)C(=O)[C@@H]4C2C(=O)O1 (some centres undefined)" assigned_class="Criterion not met"
molecule="CN1C(=O)C2C(C1=O)C1C=C(CCCO)C2C(C2CC2)N1Cc1cccc(OC(F)(F)F)c1 (centres undefined)" assigned_class="Criterion not met"
molecule=O=C1C[C@@](C(=O)NC2CC2)(c2ccc([N+](=O)[O-])cc2)[C@@H](c2ccc(CO)cc2)N1C1CCCCC1 assigned_class="Criterion not met"
molecule=O=C1c2ccccc2[C@@]2(Cc3ccccc3N(Cc3ccccc3)C2=O)[C@H](c2ccc(CO)cc2)N1Cc1ccccc1Cl assigned_class="Criterion not met"
molecule="COc1ccc(C(O)C2C=CC3C(=O)N(c4ccccc4)C(=O)C3N2Nc2ccc([N+](=O)[O-])cc2)c2ccccc12 (centres undefined)" assigned_class="Criterion not met"
molecule=COc1ccc(C#Cc2ccc3c(c2)[C@]2(C(=O)N3)[C@H](C(=O)O)[C@H]3C(=O)O[C@H](c4ccccc4)[C@H](c4ccccc4)N3[C@@H]2c2ccccc2OCCO)cc1 assigned_class="Criterion met"
molecule=[N-]=[N+]=Nc1ccccc1C[C@]1(C(=O)N2CCOCC2)N=C(c2ccc(OCCCO)cc2)O[C@H]1c1ccccc1N=[N+]=[N-] assigned_class="Criterion met"
molecule=C=CCOC(=O)[C@@H]1[C@H]2C(=O)O[C@H](c3ccccc3)[C@H](c3ccccc3)N2[C@H](c2ccc(OCCOC(=O)[C@H]3C[C@H]4C(=O)N[C@@H](CCCCN(C)C)C(=O)N4[C@H]3c3ccc(O)cc3)cc2)[C@@]12C(=O)Nc1ccc(I)cc12 assigned_class="Criterion met"
molecule=CCCC=C(CCC)[C@@H](NC(=O)OCC(C)C)c1ccc(C(=O)OC)cc1 assigned_class="Criterion met"
molecule=C=C1C(=O)C=C2CN(C(=O)c3ccccc3)[C@@](Cc3ccc(OC)cc3)(C(=O)OC)[C@@H]12 assigned_class="Criterion not met"
